# System: HPAC
# Method: Anti-proliferative 2D CTG assay, HPAC
# Assay type: cell-based
# Details: Homo sapiens, 96 h, HPAC cells, 4 days incubation, read-out: HPAC cell IC50
Readout: pIC50
Entry type: numeric. Quantity: pIC50, the -log10 of concentration in molar units.

Consider the molecule C#Cc1c(F)ccc2cc(O)cc(-c3ncc4c(N5C[C@@H]6CC[C@](C7CCCC7)(C5)N6)nc(OC[C@@]56CCCN5C/C(=C\F)C6)nc4c3F)c12 [Example 75] and give its measured pIC50.
7.03

Next molecule: [2H]C([2H])([2H])OC[C@@]12CC[C@@H](CN(c3nc(OC[C@@]45CCCN4C/C(=C\F)C5)nc4c(F)c(-c5cccc6sc(N)c(C#N)c56)c(Cl)cc34)C1)N2 [Example 363]
7.18

Now try C#Cc1c(F)ccc2cc(O)cc(-c3ncc4c(N5C[C@@H]6CC[C@](CC)(C5)N6)nc(OC[C@@]56CCCN5C/C(=C\F)C6)nc4c3F)c12 [Example 56] .
8.60

Again, but for [2H]C([2H])([2H])[C@@]12CC[C@@H](CN(c3nc(OC[C@@]45CCCN4C/C(=C\F)C5)nc4c(F)c(-c5cc(O)cc6ccc(F)c(C#C)c56)c(F)cc34)C1)N2 [Example 229]
7.06

Item: [2H]C([2H])([2H])C([2H])([2H])[C@@]12CC[C@@H](CN(c3nc(OC[C@@]45CCCN4C/C(=C\F)C5)nc4c(F)c(-c5cc(O)cc6ccc(F)c(C#C)c56)ncc34)C1)N2 [Example 71]
8.64

----------
Overview of reported half-life across a group of compounds:
# Method: Pharmacokinetic experiment in mice (single PO or IV administration)
# Details: male, ICR, mouse, plasma, iv, 2 mg/kg
Answer with a number only, understood to be in h.

Known half-life results, listed for orientation:
compound=[2H]C([2H])([2H])OC[C@@]12CC[C@@H](CN(c3nc(OC[C@@]45CCCN4C/C(=C\F)C5)nc4c(F)c(-c5cc(O)cc6ccc(F)c(C#C)c56)ncc34)C1)N2 readout=half-life units_of_measure=h reported_measurement=4.9
compound="C#Cc1c(F)ccc2cc(O)cc(-c3ncc4c(N5C[C@H]6CC[C@@H](C5)N6)nc(OC[C@@]56CCCN5C/C(=C\\F)C6)nc4c3F)c12 [Reference Compound 1, reference compound]" readout=half-life units_of_measure=h reported_measurement=10.5

Continue with the next compound.
Give the measured half-life of [2H]C([2H])([2H])[C@@]12CC[C@@H](CN(c3nc(OC[C@@]45CCCN4C/C(=C\F)C5)nc4c(F)c(-c5cc(N)cc6ccc(F)c(C#C)c56)ncc34)C1)N2 .
7.2

----------
# Tgt: KRAS^G12D/cRAF (Homo sapiens, UniProt P01116, G12D)
# Sequence (P01116 1-188 isoform P01116-2 G12D): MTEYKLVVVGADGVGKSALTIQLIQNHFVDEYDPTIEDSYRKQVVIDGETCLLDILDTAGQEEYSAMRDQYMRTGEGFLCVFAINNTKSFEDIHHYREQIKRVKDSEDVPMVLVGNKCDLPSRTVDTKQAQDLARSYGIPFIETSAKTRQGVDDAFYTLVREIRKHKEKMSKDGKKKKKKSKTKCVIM
# Method: KRAS G12D/cRAF binding test (Alphalisa)
# Details: His-tagged KRAS G12D with GMPPNP, GST-tagged cRAF
# Description: The compound was dissolved in 100% DMSO at a starting concentration of 5 mM and diluted in DMSO with a 3-fold serial dilution method for a total of 8 concentration points. […] The ratio for each compound concentration was calculated from the signal of the DMSO control group contained in each assay plate and the Alphalisa signal in each compound well. […] The endpoint value (IC50) of the reference compound was assessed in each experiment as a quality control measure. […]
Quick reference for pIC50 among some molecules
# pIC50 is unitless: minus log10 of the molar concentration; print number only

Example entries and their recorded answers appear below.
molecule="C#Cc1c(F)ccc2cc(O)cc(-c3ncc4c(N5CC6CCC(C(C)(C)O)(C5)N6)nc(OCC56CC(=C)CN5CC(=C)C6)nc4c3F)c12 (centres unmarked)" tgt="KRAS^G12D/cRAF (Homo sapiens, UniProt P01116, G12D)" readout=pIC50 reported_measurement=7.32
molecule=C#Cc1c(F)ccc2cc(O)cc(-c3ncc4c(N5C[C@@H]6CC[C@](CC)(C5)N6)nc(OC[C@@]56CCCN5CC(=C)C6)nc4c3F)c12 tgt="KRAS^G12D/cRAF (Homo sapiens, UniProt P01116, G12D)" readout=pIC50 reported_measurement=8.52
molecule=[2H]C([2H])([2H])C([2H])([2H])[C@@]12CC[C@@H](CN(c3nc(OC[C@@]45CCCN4CC(=C(F)F)C5)nc4c(F)c(-c5cc(O)cc6ccc(F)c(C#C)c56)ncc34)C1)N2 tgt="KRAS^G12D/cRAF (Homo sapiens, UniProt P01116, G12D)" readout=pIC50 reported_measurement=7.84

Sample C#Cc1c(F)ccc2cc(O)cc(-c3ncc4c(N5C[C@@H]6CC[C@](COC)(C5)N6)nc(OC[C@@]56CCCN5CC(=C)C6)nc4c3F)c12 — what was its pIC50?
8.54

Here is the next molecule: [2H]C([2H])([2H])OC[C@@]12CC[C@@H](CN(c3nc(OC[C@@]45CCCN4C/C(=C/F)C5)nc4c(F)c(-c5cc(O)cc6ccc(F)c(C#C)c56)ncc34)C1)N2
8.41
